These measurements were taken from patent US7112318B2.

Assay: Biodistribution in mice 60 min after i.v. injection
Details: 60 min after iv. injection
Recorded Endpoint: biodistribution, kidney (% ID/g)

The following molecules have reported results that may help.
[18F]CCC[P+](c1ccccc1)(c1ccccc1)c1ccccc1 [[18F]FPTP]; 5.74
[11CH3][P+](c1ccccc1)(c1ccccc1)c1ccccc1 [[11C]TPMP, C-11-triphenylmethyl phosphonium]; 3.79

1: [18F]c1ccc(C[P+](c2ccccc2)(c2ccccc2)c2ccccc2)cc1
2: [99Tc].[C-]#[N+]CC(C)(C)OC.[C-]#[N+]CC(C)(C)OC.[C-]#[N+]CC(C)(C)OC.[C-]#[N+]CC(C)(C)OC.[C-]#[N+]CC(C)(C)OC.[C-]#[N+]CC(C)(C)OC [[^99mTc]MIBI, Tc-99m-sestamibii, reference compound]
Query: Hello, I am sorting some records. Could you say if 1 or 2 has the smaller biodistribution, kidney value? Returns: label corresponding to the selected item.
Reply: 1
(1: 4.89 % ID/g, 2: 12.6 % ID/g)

----------
Experiment: Biodistribution in mice 60 min after i.v. injection
Settings: 60 min after iv. injection
Recorded Endpoint: biodistribution, liver (% ID/g)

[11CH3][P+](c1ccccc1)(c1ccccc1)c1ccccc1 [[11C]TPMP, C-11-triphenylmethyl phosphonium]; 5.68

I: [99Tc].[C-]#[N+]CC(C)(C)OC.[C-]#[N+]CC(C)(C)OC.[C-]#[N+]CC(C)(C)OC.[C-]#[N+]CC(C)(C)OC.[C-]#[N+]CC(C)(C)OC.[C-]#[N+]CC(C)(C)OC [[^99mTc]MIBI, Tc-99m-sestamibii, reference compound]
II: [18F]c1ccc(C[P+](c2ccccc2)(c2ccccc2)c2ccccc2)cc1
Query: Which value of biodistribution, liver is greater, the one for I or the one for II ? Returns: label corresponding to the selected item.
Reply: I
(I: 5.55 % ID/g, II: 3.00 % ID/g)

----------
Experiment: Biodistribution in mice 60 min after i.v. injection
Details: 60 min after iv. injection
Recorded Endpoint: biodistribution, heart (% ID/g)

[18F]CCC[P+](c1ccccc1)(c1ccccc1)c1ccccc1 [[18F]FPTP]; 9.86

a: [18F]c1ccc(C[P+](c2ccccc2)(c2ccccc2)c2ccccc2)cc1
b: [11CH3][P+](c1ccccc1)(c1ccccc1)c1ccccc1 [[11C]TPMP, C-11-triphenylmethyl phosphonium]
c: [99Tc].[C-]#[N+]CC(C)(C)OC.[C-]#[N+]CC(C)(C)OC.[C-]#[N+]CC(C)(C)OC.[C-]#[N+]CC(C)(C)OC.[C-]#[N+]CC(C)(C)OC.[C-]#[N+]CC(C)(C)OC [[^99mTc]MIBI, Tc-99m-sestamibii, reference compound]
Query: Which order do these items take when sorted by rising biodistribution, heart? List them. Respond with the label ranking, as requested.
Reply: c, b, a

----------
Experiment: Biodistribution in mice 60 min after i.v. injection
Settings: 60 min after iv. injection
Recorded Endpoint: biodistribution, spleen (% ID/g)

[18F]CCC[P+](c1ccccc1)(c1ccccc1)c1ccccc1 [[18F]FPTP]; 1.23
[11CH3][P+](c1ccccc1)(c1ccccc1)c1ccccc1 [[11C]TPMP, C-11-triphenylmethyl phosphonium]; 1.43
[18F]c1ccc(C[P+](c2ccccc2)(c2ccccc2)c2ccccc2)cc1; 1.79
[99Tc].[C-]#[N+]CC(C)(C)OC.[C-]#[N+]CC(C)(C)OC.[C-]#[N+]CC(C)(C)OC.[C-]#[N+]CC(C)(C)OC.[C-]#[N+]CC(C)(C)OC.[C-]#[N+]CC(C)(C)OC [[^99mTc]MIBI, Tc-99m-sestamibii, reference compound]; 1.27
